Form: system (UniProt:P00742), quantity (Ki), values below.
Sequence (P00742 235-488 limits assumed): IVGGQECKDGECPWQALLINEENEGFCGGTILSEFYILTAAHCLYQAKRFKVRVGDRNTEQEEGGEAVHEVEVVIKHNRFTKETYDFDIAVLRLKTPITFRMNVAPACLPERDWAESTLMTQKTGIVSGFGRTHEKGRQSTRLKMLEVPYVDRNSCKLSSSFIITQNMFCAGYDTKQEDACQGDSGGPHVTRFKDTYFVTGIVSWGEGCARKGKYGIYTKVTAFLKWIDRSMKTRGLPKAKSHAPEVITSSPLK
Sequence (P00742 41-179 partner limits assumed): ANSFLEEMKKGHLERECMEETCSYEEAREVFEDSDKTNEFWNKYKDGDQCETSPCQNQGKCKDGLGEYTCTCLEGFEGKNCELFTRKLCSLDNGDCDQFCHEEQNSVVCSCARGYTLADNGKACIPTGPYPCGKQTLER

MOLECULE	Ki
CC(OC(=O)OC1CCCCC1)OC(=O)c1cccc2c1nc(C(=O)NC1CCN(C(C)C)CC1)n2CC(=O)Nc1ccc(Cl)cn1 (stereo not shown) [Example 34]	19.5 nM
CC(C)N1CCC(NC(=O)c2nc3ccccc3n2Cc2cc(-c3ccc(Cl)s3)on2)CC1 [Example 1]	0.7 nM
CC(C)N1CCC(NC(=O)c2nc3cc(S(=O)(=O)CCO)ccc3n2Cc2cc(-c3ccc(Cl)s3)on2)CC1 [Example 29a]	25.5 nM
CC(C)N1CCC(NC(=O)c2nc3cccc(C(=O)O)c3n2Cc2cc(-c3ccc(Cl)s3)on2)CC1 [Example 13]	299 nM

Origin of the recorded values: patent US7741341B2
